experimental.protocol: NMTRC 002: DFMO serum pharmacokinetics in children with NB
setup.conditions: human, serum, po, 750 mg/m2, Cmax mean ± SD, 750 mg/m^2 PO BID, Cycle 1
property.label: Cmax (ng/mL)
Numbers only, in ng/mL.

Query: Cmax; subject: NCCCC(N)(C(=O)O)C(F)F (stereo not shown)
11900

* * *

experimental.protocol: NMTRC 002: DFMO serum pharmacokinetics in children with NB
setup.conditions: human, serum, po, 1500 mg/m2, Cmax mean ± SD, 1500 mg/m^2 PO BID, Cycle 1
property.label: Cmax (ng/mL)
Numbers only, in ng/mL.

Item NCCCC(N)(C(=O)O)C(F)F (stereo not shown) [DFMO] has what recorded Cmax?
29000
